IC50 listing for selected compounds.
# TARGET ENTITY: USP28 (His-tagged USP28-FL-mammalian) (Homo sapiens, UniProt Q96RU2)
# Construct: Expression of USP28 (1-1077)-TEV-6*His (pTT5 vector); made in house; host or cells: Expi293f cells (pTT5 vector)
# ASSAY INFO: Ubiquitin-Rhodamine 110 Assay for USP28 Activity, Example A-1(a)
# Assay type: biochemical
# EXPERIMENTAL PARAMETERS: Ubiquitin-Rhodamine 110 assay, Example A-1(a); read-out: USP28 A-1(a) IC50 range

Field: example entries. Status: answers known.
>  <COMPOUND>
Cc1cnc2c(N)c(C(=O)N[C@H]3COc4c(C#N)c(N5CC6CC(C5)N6)cc(F)c4C3)sc2n1

>  <IC50>
50 to 200 nM

$$$$
>  <COMPOUND>
Cc1ccc2c(N)c(C(=O)N[C@@H]3CCc4cc(N5CC6CCC(C5)N6)ccc4C3)sc2n1

>  <IC50>
50 to 200 nM

$$$$
>  <COMPOUND>
Cc1ccc2c(N)c(C(=O)N[C@@H]3CCc4nc(N5C[C@@H](N)[C@H](C(F)F)C5)ncc4C3)sc2n1

>  <IC50>
200 to 2000 nM

$$$$

Reported IC50 for N#Cc1c(N2CC3CCC(C2)N3)cc(F)c2c1CC[C@@H](NC(=O)c1cnc3c(c1)[C@H]1C[C@H]1CN3)C2 : what is it? 200 to 2000 nM

Given the entry COC[C@@H]1CN(c2ccc3c(n2)CC[C@H](NC(=O)c2sc4nc(C)cc(C)c4c2N)C3)C[C@@H]1N , report its measured IC50. 50 to 200 nM

Could you tell me which IC50 is on file for CO[C@H]1CN(c2cc(F)c3c(c2C#N)OC[C@H](NC(=O)c2sc4nc(C)cnc4c2N)C3)C[C@@H]1N ? 200 to 2000 nM

Consider the compound Cc1nc2sc(C(=O)N[C@H]3CCc4nc(N5CCNCC5)ccc4C3)c(N)c2s1 and give its measured IC50. 50 to 200 nM

Any idea what IC50 was measured for Cc1ccc2c(N)c(C(=O)N[C@H]3COc4cc(N5CCC[C@H]6CNC[C@H]65)ccc4C3)sc2n1 ? 1 to 50 nM

###

# TARGET ENTITY: USP25 (USP25-His6, Boston Biochem E-546) (Homo sapiens)
# Construct: His6; purchased Boston Biochem E-546
# Sequence (Q9UHP3 whole entry): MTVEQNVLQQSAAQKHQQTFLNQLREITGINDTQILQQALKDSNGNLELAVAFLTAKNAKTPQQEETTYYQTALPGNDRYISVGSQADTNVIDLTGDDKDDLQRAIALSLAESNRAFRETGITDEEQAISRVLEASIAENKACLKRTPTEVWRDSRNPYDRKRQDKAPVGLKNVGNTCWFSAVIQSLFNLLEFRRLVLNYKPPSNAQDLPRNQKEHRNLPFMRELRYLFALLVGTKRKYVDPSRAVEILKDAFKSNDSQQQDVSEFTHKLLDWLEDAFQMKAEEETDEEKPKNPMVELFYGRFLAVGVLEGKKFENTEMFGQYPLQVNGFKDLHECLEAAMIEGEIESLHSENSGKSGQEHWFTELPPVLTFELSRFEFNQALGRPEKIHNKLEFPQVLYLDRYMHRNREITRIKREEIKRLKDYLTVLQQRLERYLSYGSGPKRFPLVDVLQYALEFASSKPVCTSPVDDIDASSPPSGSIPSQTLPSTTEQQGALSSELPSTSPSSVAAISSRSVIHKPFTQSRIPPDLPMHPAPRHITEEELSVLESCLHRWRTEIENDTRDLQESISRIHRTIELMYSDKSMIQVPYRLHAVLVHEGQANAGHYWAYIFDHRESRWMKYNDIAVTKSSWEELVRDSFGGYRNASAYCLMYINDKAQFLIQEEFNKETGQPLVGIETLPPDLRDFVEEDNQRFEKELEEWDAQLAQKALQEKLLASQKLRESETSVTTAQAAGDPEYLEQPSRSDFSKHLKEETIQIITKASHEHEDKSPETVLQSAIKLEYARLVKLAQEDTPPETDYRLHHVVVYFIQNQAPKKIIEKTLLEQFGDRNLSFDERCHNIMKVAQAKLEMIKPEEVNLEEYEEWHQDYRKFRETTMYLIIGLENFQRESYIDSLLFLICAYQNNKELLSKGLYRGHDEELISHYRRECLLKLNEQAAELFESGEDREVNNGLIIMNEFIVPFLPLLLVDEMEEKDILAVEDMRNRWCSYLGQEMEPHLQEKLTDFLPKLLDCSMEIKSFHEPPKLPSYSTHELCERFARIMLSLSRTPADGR
# ASSAY INFO: Ubiquitin-Rhodamine 110 Assay for USP25 Activity, Example A-2
# Format: biochemical
# EXPERIMENTAL PARAMETERS: Ubiquitin-Rhodamine 110 assay, Example A-2; read-out: USP25 A-2 IC50 range
Measured IC50 values are reported for all entries that follow.

>  <COMPOUND>
CCO[C@H]1CN(c2ccc3c(c2)CC[C@H](NC(=O)c2sc4nc(C)ccc4c2N)C3)C[C@H]1N [Example 268]

>  <IC50>
> 2 µM

$$$$

# IC50 lookup, item Cc1ccc2c(N)c(C(=O)N[C@H]3COc4cc(N5C[C@H](N)[C@H](C(F)F)C5)ccc4C3)sc2n1 [Example 167] 0.2 to 2 µM

Fill in the blank: the reported IC50 of CO[C@H]1CN(c2ccc3c(c2)OC[C@H](NC(=O)c2sc4nc(C)ccc4c2N)C3)C[C@@H]1NC(C)=O [Example 213] is ____. 0.2 to 2 µM

# IC50 lookup, item CCO[C@@H]1CN(c2ccc3c(c2)CC[C@H](NC(=O)c2sc4nc(C)ccc4c2N)C3)C[C@@H]1N [Example 267] 0.2 to 2 µM

Which value of IC50 has been reported for Cc1cnc2c(N)c(C(=O)N[C@H]3CCc4cc(N5CC6CNCC(C5)O6)ccc4C3)sc2n1 [Example 448] in the records? 0.2 to 2 µM

State the recorded IC50 for this entry: Cc1cc(C)c2c(N)c(C(=O)N[C@H]3CCc4nc(N5CC[C@H]6CNC[C@H]65)ccc4C3)sc2n1 [Example 218] 0.2 to 2 µM

###

Reported IC50 is given for each of the following compounds.
# TARGET ENTITY: USP28 (His-tagged USP28-FL-mammalian) (Homo sapiens, UniProt Q96RU2)
# Construct: Expression of USP28 (1-1077)-TEV-6*His (pTT5 vector); made in house; host or cells: Expi293f cells (pTT5 vector)
# ASSAY INFO: Ubiquitin-Rhodamine 110 Assay for USP28 Activity, Example A-1(a)
# Type: biochemical
# EXPERIMENTAL PARAMETERS: Ubiquitin-Rhodamine 110 assay, format Example A-1(a); read-out: USP28 A-1(a) IC50 range

The examples below pair each entry with its known result.
>  <COMPOUND>
Cc1ccc2c(N)c(C(=O)N[C@@H]3CCc4cc(N5CCNCC5)c(F)cc4C3)sc2n1 (single isomer, unassigned)

>  <IC50>
50 to 200 nM

$$$$
>  <COMPOUND>
Cc1ccc2c(N)c(C(=O)N[C@H]3COc4cc(N5CC6CCC(C5)N6)c(F)c(F)c4C3)sc2n1

>  <IC50>
200 to 2000 nM

$$$$

Checklist item: IC50 tested on USP28 (His-tagged USP28-FL-mammalian) (Homo sapiens, UniProt Q96RU2), entry Cc1cnc2c(N)c(C(=O)N[C@H]3CCc4c(ccc(N5CC6CCC(C5)N6)c4C#N)C3)sc2n1 (single isomer, unassigned) , value? 200 to 2000 nM

Recall the recorded IC50 for Cc1ccc2c(N)c(C(=O)N[C@H]3CCc4c(ccc(N5CCNCC5)c4F)C3)sc2n1 (single isomer, unassigned) with USP28 (His-tagged USP28-FL-mammalian) (Homo sapiens, UniProt Q96RU2) and state it. 200 to 2000 nM

State its IC50 on USP28 (His-tagged USP28-FL-mammalian) (Homo sapiens, UniProt Q96RU2): Cc1nc2sc(C(=O)N[C@H]3CCc4cc(N5CC6CCC(C5)N6)ccc4C3)c(N)c2s1 (single isomer, unassigned) 200 to 2000 nM

// fetch USP28 (His-tagged USP28-FL-mammalian) (Homo sapiens, UniProt Q96RU2) IC50 for Cc1ccc2c(N)c(C(=O)N[C@H]3CCc4c(ccc(N5CC6CCC(C5)N6)c4C#N)C3)sc2n1 (single isomer, unassigned) 50 to 200 nM

Give USP28 (His-tagged USP28-FL-mammalian) (Homo sapiens, UniProt Q96RU2) IC50 for Cc1ccc2c(N)c(C(=O)N[C@@H]3COc4cc(N5CC6CCC(C5)N6)c(F)c(F)c4C3)sc2n1 1 to 50 nM

Value wanted: IC50 (USP28 (His-tagged USP28-FL-mammalian) (Homo sapiens, UniProt Q96RU2)) of entry Cc1ccc2c(N)c(C(=O)N[C@H]3COc4nc(N5CCNCC5)ccc4C3)sc2n1 50 to 200 nM

What IC50 appears in the records for this compound with USP28 (His-tagged USP28-FL-mammalian) (Homo sapiens, UniProt Q96RU2)? Cc1cnc2c(N)c(C(=O)N[C@@H]3CCc4cc(N5CC6CCC(C5)N6)c(C#N)cc4C3)sc2n1 (single isomer, unassigned) 200 to 2000 nM

###

# TARGET ENTITY: USP28 (His-tagged USP28-FL-mammalian) (Homo sapiens, UniProt Q96RU2)
# Construct: Expression of USP28 (1-1077)-TEV-6*His (pTT5 vector); made in house; host or cells: Expi293f cells (pTT5 vector)
# Sequence (Q96RU2 1-1077): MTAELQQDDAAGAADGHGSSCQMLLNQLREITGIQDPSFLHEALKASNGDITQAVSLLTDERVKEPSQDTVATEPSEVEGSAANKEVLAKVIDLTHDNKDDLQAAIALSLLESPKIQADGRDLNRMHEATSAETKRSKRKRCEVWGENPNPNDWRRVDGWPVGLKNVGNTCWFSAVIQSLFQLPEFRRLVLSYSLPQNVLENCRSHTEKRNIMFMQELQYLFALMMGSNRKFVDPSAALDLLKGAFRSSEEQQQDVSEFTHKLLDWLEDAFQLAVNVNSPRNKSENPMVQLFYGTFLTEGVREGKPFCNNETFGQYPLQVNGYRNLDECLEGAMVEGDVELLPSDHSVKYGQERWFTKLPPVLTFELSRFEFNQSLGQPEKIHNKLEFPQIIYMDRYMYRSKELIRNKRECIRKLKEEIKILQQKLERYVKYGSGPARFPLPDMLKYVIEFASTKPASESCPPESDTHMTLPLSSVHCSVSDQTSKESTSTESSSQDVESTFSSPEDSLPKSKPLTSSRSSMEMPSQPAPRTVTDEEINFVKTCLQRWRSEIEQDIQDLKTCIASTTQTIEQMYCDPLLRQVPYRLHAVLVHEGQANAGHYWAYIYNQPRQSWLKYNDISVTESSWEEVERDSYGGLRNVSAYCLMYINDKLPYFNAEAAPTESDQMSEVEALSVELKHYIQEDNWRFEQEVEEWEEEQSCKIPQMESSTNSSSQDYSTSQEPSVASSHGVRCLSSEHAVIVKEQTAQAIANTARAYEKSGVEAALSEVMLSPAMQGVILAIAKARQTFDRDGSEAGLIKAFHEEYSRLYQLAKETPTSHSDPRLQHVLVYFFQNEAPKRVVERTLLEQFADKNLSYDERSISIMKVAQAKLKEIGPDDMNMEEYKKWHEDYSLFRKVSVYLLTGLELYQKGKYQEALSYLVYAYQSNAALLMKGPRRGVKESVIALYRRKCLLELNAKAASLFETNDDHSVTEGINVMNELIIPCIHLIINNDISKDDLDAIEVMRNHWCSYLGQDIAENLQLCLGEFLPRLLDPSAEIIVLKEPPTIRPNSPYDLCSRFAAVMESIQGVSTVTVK
# ASSAY INFO: Ubiquitin-Rhodamine 110 Assay for USP28 Activity, Example A-1(a)
# Assay type: biochemical
# EXPERIMENTAL PARAMETERS: Ub-Rh110 assay, Example A-1(a); read-out: USP28 A-1(a) IC50 range
Reported IC50 values for a set of compounds

>  <COMPOUND>
Cc1ccc2c(N)c(C(=O)N[C@H]3COc4cc(N5CCNCC5)c(F)cc4C3)sc2n1

>  <IC50>
1 to 50 nM

$$$$
>  <COMPOUND>
Cc1ccc2c(N)c(C(=O)N[C@H]3COc4cc(N5CCN[C@@H](C)[C@@H]5C)ccc4C3)sc2n1 (single isomer, unassigned)

>  <IC50>
50 to 200 nM

$$$$
>  <COMPOUND>
Cc1nc2sc(C(=O)N[C@H]3COc4cc(N5CC6CNCC(C5)C6(F)F)ccc4C3)c(N)c2s1

>  <IC50>
1 to 50 nM

$$$$
>  <COMPOUND>
O=C(N[C@H]1COc2cc(N3CC4CCC(C3)N4)ccc2C1)c1ccc(NCc2ccccc2)nc1

>  <IC50>
50 to 200 nM

$$$$
>  <COMPOUND>
Cc1ccc2c(N)c(C(=O)N[C@@H]3COc4cc(N5CCN[C@H](C)[C@H]5C)ccc4C3)sc2n1 (single isomer, unassigned)

>  <IC50>
1 to 50 nM

$$$$
>  <COMPOUND>
Cc1nc2sc(C(=O)N[C@H]3COc4cc(N5CC6CCCC(C5)N6)ccc4C3)c(N)c2s1

>  <IC50>
1 to 50 nM

$$$$
>  <COMPOUND>
Cc1ccc2c(N)c(C(=O)N[C@H]3COc4cc(N5CCN[C@H](C)C5)ccc4C3)sc2n1

>  <IC50>
1 to 50 nM

$$$$
>  <COMPOUND>
Cc1ccc2c(N)c(C(=O)N[C@H]3COc4cc(N5CCNCC5)ccc4C3)sc2n1 (single isomer, unassigned)

>  <IC50>
1 to 50 nM

$$$$
>  <COMPOUND>
Cc1cnc2c(N)c(C(=O)N[C@H]3COc4cc(N5CC6COCC(C5)N6)ccc4C3)sc2n1

>  <IC50>
50 to 200 nM

$$$$
>  <COMPOUND>
Cc1nc2sc(C(=O)N[C@H]3COc4cc(N5CC6CCC(C5)N6)ccc4C3)c(N)c2s1

>  <IC50>
1 to 50 nM

$$$$

Fill in the blank: the reported IC50 of CCn1ccc2cc(C(=O)N[C@H]3COc4cc(N5CC6CCC(C5)N6)ccc4C3)cnc21 (single isomer, unassigned) is ____. 1 to 50 nM

Which IC50 is reported for this compound? Cc1cnc2c(N)c(C(=O)N[C@H]3CCc4cc(N5CCNCC5)c(C)cc4C3)sc2n1 (single isomer, unassigned) 50 to 200 nM

Query: IC50; subject: Nc1c(C(=O)N[C@H]2COc3cc(N4CC5CCC(C4)N5)ccc3C2)sc2ncc(F)cc12 (single isomer, unassigned) 50 to 200 nM

Need IC50 of Cc1nc2sc(C(=O)N[C@@H]3COc4cc(N5CCNCC5)cc(F)c4C3)c(N)c2s1 (single isomer, unassigned) , thanks. 1 to 50 nM

Dear colleague, I am looking for the recorded IC50 of the following compound: Cc1cc(C)c2c(N)c(C(=O)N[C@H]3COc4c(C#N)c(N5CCNCC5)cc(F)c4C3)sc2n1 1 to 50 nM

Bench note: what IC50 did Cc1cc(C)c2c(N)c(C(=O)N[C@H]3COc4cc(N5CCNCC5)ccc4C3)sc2n1 show? 1 to 50 nM
